System: Amaranthus rudis (AMATA), tall water hemp
assayText: Postemergence herbicide evaluation, growth of Amaranthus rudis (AMATA)
Type: in vivo
assayContext: Amaranthus tuberculatus, post-emergence, 336 h, read-out: Ave. AMATA
quantityMeasured: pest or weed control at 560 g/ha (%)
Supply the numeric figure in %, leaving out any unit text.

Recorded pest or weed control at 560 g/ha, per entry:
> print(dat)
                                   compound                        experimentalsystem  datavalue
1  O=C(COc1ccc(Cl)cc1Cl)OCCCOC(=O)COc1ccc(Cl)cc1Cl [Compound B10]  Amaranthus rudis (AMATA), tall water hemp         80
2  O=C(COc1ccc(Cl)cc1Cl)OCCCCCOC(=O)COc1ccc(Cl)cc1Cl [Compound B8]  Amaranthus rudis (AMATA), tall water hemp       96.5
3  O=C(COc1ccc(Cl)cc1Cl)OCc1ccccc1 [Compound E4, Benzyl 2-(2,4-dichlorophenoxy)acetate]  Amaranthus rudis (AMATA), tall water hemp         93

IN: May I ask what pest or weed control at 560 g/ha has been recorded for O=C(COc1ccc(Cl)cc1Cl)n1cnc2ccccc21 [Compound D4] ?
OUT: 97

IN: May I ask what pest or weed control at 560 g/ha has been recorded for O=C(COc1ccc(Cl)cc1Cl)OCOC(=O)c1ccccc1 [Compound E7] ?
OUT: 85

IN: May I ask what pest or weed control at 560 g/ha has been recorded for O=C(COc1ccc(Cl)cc1Cl)OCCOC(=O)COc1ccc(Cl)cc1Cl [Compound B9] ?
OUT: 90

IN: May I ask what pest or weed control at 560 g/ha has been recorded for O=C(COc1ccc(Cl)cc1Cl)Oc1ccc(Cl)cc1 [Compound E5] ?
OUT: 89

IN: May I ask what pest or weed control at 560 g/ha has been recorded for O=C(COc1ccc(Cl)cc1Cl)Nc1ccc(Cl)cc1 [Compound D6] ?
OUT: 70

IN: May I ask what pest or weed control at 560 g/ha has been recorded for O=C(COc1ccc(Cl)cc1Cl)OCCOCCOCCOC(=O)COc1ccc(Cl)cc1Cl [Compound B13] ?
OUT: 87.5

IN: May I ask what pest or weed control at 560 g/ha has been recorded for O=C(COc1ccc(Cl)cc1Cl)OCCOCCOCCOCCOC(=O)COc1ccc(Cl)cc1Cl [Compound B14] ?
OUT: 96

IN: May I ask what pest or weed control at 560 g/ha has been recorded for N#C/C(=N\OC(=O)COc1ccc(Cl)cc1Cl)c1ccccc1 [Compound A6] ?
OUT: 78

====

Tested on: Abutilon theophrasti (ABUTH), velvetleaf
assayText: Postemergence herbicide evaluation, growth of Abutilon theophrasti (ABUTH)
Format: in vivo
assayContext: Abutilon theophrasti, post-emergence, 336 h, read-out: AVE. ABUTH
quantityMeasured: pest or weed control at 560 g/ha (%)
Supply the numeric figure in %, leaving out any unit text.

> print(dat)
                                   molecule  unitsofmeasure  datavalue
1  N#C/C(=N\OC(=O)COc1ccc(Cl)cc1Cl)c1ccccc1 [Compound A6]               %         85

IN: May I ask what pest or weed control at 560 g/ha has been recorded for O=C(COc1ccc(Cl)cc1Cl)OCc1ccccc1 [Compound E4, Benzyl 2-(2,4-dichlorophenoxy)acetate] ?
OUT: 97

IN: May I ask what pest or weed control at 560 g/ha has been recorded for O=C(COc1ccc(Cl)cc1Cl)n1cnc2ccccc21 [Compound D4] ?
OUT: 96

IN: May I ask what pest or weed control at 560 g/ha has been recorded for O=C(COc1ccc(Cl)cc1Cl)OCCOCCOCCOC(=O)COc1ccc(Cl)cc1Cl [Compound B13] ?
OUT: 57.5

IN: May I ask what pest or weed control at 560 g/ha has been recorded for O=C(COc1ccc(Cl)cc1Cl)Oc1ccc(Cl)cc1 [Compound E5] ?
OUT: 93

IN: May I ask what pest or weed control at 560 g/ha has been recorded for O=C(COc1ccc(Cl)cc1Cl)Nc1ccc(Cl)cc1 [Compound D6] ?
OUT: 58

====

Test system: Amaranthus rudis (AMATA), tall water hemp
assayText: Postemergence herbicide evaluation, growth of Amaranthus rudis (AMATA)
Type: in vivo
assayContext: Amaranthus tuberculatus, post-emergence, 336 h, 280 g ae/ha, 14 DAA; read-out: Ave. AMATA, percent reduction in plant size relative to the untreated control
Listed compounds paired with reported pest or weed control at 280 g/ha
Supply the numeric figure in %, leaving out any unit text.

Recorded pest or weed control at 280 g/ha, per entry:
> print(dat)
                                   compound  datavalue
1  O=C(COc1ccc(Cl)cc1Cl)O/N=C/c1ccncc1 [Compound A30]         96
2  CC(C)ONC(=O)COc1ccc(Cl)cc1Cl [Compound D23]         90
3  N/C(=N\OC(=O)COc1ccc(Cl)cc1Cl)c1ccccc1 [Compound A3]         75

IN: May I ask what pest or weed control at 280 g/ha has been recorded for O=C(COc1ccc(Cl)cc1Cl)Nc1cc[nH]n1 [Compound D21] ?
OUT: 88

====

Tested on: Chenopodium album (CHEAL), common lambsquarters
assayText: Postemergence herbicide evaluation, growth of Chenopodium album (CHEAL)
Assay type: in vivo
assayContext: Chenopodium album, post-emergence, 168 h, 560 g ae/ha, 7 DAA, percent reduction in plant size vs untreated control; read-out: Ave. CHEAL
quantityMeasured: pest or weed control at 560 g/ha (%)
Supply the numeric figure in %, leaving out any unit text.

Recorded pest or weed control at 560 g/ha, per entry:
> print(dat)
                          structureassmiles  datavalue
1  C/C(=N\OC(=O)COc1ccc(Cl)cc1Cl)C(=O)c1ccccc1         80
2            O=C(COc1ccc(Cl)cc1Cl)Nc1ccccn1       77.5
3       Cc1cc(NC(=O)COc2ccc(Cl)cc2Cl)n(C)n1         75
4     O=C(COc1ccc(Cl)cc1Cl)NOCc1c(F)cccc1Cl       77.5
5       O=C(COc1ccc(Cl)cc1Cl)ONC(=O)C1CCCC1       77.5
6               C=CCONC(=O)COc1ccc(Cl)cc1Cl       46.5

// switching to the query molecule
IN: May I ask what pest or weed control at 560 g/ha has been recorded for O=C(COc1ccc(Cl)cc1Cl)NOCc1ccc(Cl)cc1 ?
OUT: 82.5

====

assayText: Volatility of compounds measured by thermogravimetric analysis (TGA)
Assay type: physicochemical
Listed compounds paired with reported TGA Data (rate of weight loss, volatility)
Write the figure, then the unit, nothing else.

Recorded TGA Data (rate of weight loss, volatility), per entry:
> print(dat)
                                   compound       datavalue
1  O=C(COc1ccc(Cl)cc1Cl)Oc1ccc(Cl)cc1 [Compound E5]      0.6 µg/min
2  O=C(COc1ccc(Cl)cc1Cl)Nc1cc[nH]n1 [Compound D21]  0.07078 µg/min
3  N/C(=N\OC(=O)COc1ccc(Cl)cc1Cl)c1ccco1 [Compound A5]      1.2 µg/min

// switching to the query compound
IN: May I ask what TGA Data (rate of weight loss, volatility) has been recorded for O=C(COc1ccc(Cl)cc1Cl)ONC(=O)c1cccnc1 [Compound A19] ?
OUT: 0.348 µg/min

====

Test system: Chenopodium album (CHEAL), common lambsquarters
assayText: Postemergence herbicide evaluation, growth of Chenopodium album (CHEAL)
Format: in vivo
assayContext: Chenopodium album, post-emergence, 504 h, 280 g ae/ha, 21 DAA, percent reduction in plant size vs untreated control; read-out: Ave. CHEAL
Listed compounds paired with reported pest or weed control at 280 g/ha
Supply the numeric figure in %, leaving out any unit text.

IN: May I ask what pest or weed control at 280 g/ha has been recorded for C=CCONC(=O)COc1ccc(Cl)cc1Cl ?
OUT: 96.5

====

Tested on: Abutilon theophrasti (ABUTH), velvetleaf
assayText: Postemergence herbicide evaluation, growth of Abutilon theophrasti (ABUTH)
Format: in vivo
assayContext: Abutilon theophrasti, post-emergence, 168 h, 280 g ae/ha, 7 DAA, percent reduction in plant size relative to untreated control; read-out: AVE. ABUTH
quantityMeasured: pest or weed control at 280 g/ha (%)
Supply the numeric figure in %, leaving out any unit text.

> print(dat)
                          structureassmiles                  quantitymeasured  datavalue
1        CCO/C(CC)=N\OC(=O)COc1ccc(Cl)cc1Cl  pest or weed control at 280 g/ha         80
2     O=C(Cc1ccccc1)NOC(=O)COc1ccc(Cl)cc1Cl  pest or weed control at 280 g/ha         68
3  O=C(COc1ccc(Cl)cc1Cl)ONC(=O)c1ccc(C(=O)NOC(=O)COc2ccc(Cl)cc2Cl)cc1  pest or weed control at 280 g/ha         70

IN: May I ask what pest or weed control at 280 g/ha has been recorded for CS/C(C)=N\OC(=O)COc1ccc(Cl)cc1Cl ?
OUT: 83

IN: May I ask what pest or weed control at 280 g/ha has been recorded for O=C(COc1ccc(Cl)cc1Cl)ON1C(=O)c2ccccc2C1=O ?
OUT: 78

IN: May I ask what pest or weed control at 280 g/ha has been recorded for N/C(=N\OC(=O)COc1ccc(Cl)cc1Cl)c1ccc(/C(N)=N/OC(=O)COc2ccc(Cl)cc2Cl)cc1 ?
OUT: 0

IN: May I ask what pest or weed control at 280 g/ha has been recorded for C/C(N)=N/OC(=O)COc1ccc(Cl)cc1Cl ?
OUT: 85

IN: May I ask what pest or weed control at 280 g/ha has been recorded for Cc1ccc(S(=O)(=O)NC(=O)COc2ccc(Cl)cc2Cl)cc1 ?
OUT: 30

IN: May I ask what pest or weed control at 280 g/ha has been recorded for O=C(COc1ccc(Cl)cc1Cl)NOc1ccccc1 ?
OUT: 68

IN: May I ask what pest or weed control at 280 g/ha has been recorded for Cn1c(O)c(C(=O)COc2ccc(Cl)cc2Cl)c2ccccc21 ?
OUT: 68

IN: May I ask what pest or weed control at 280 g/ha has been recorded for CN(OC(=O)COc1ccc(Cl)cc1Cl)C(=O)c1ccccc1 ?
OUT: 85

IN: May I ask what pest or weed control at 280 g/ha has been recorded for O=C(COc1ccc(Cl)cc1Cl)ON1CCCCC1 ?
OUT: 83

IN: May I ask what pest or weed control at 280 g/ha has been recorded for CC(=O)/C(C)=N/OC(=O)COc1ccc(Cl)cc1Cl ?
OUT: 74

IN: May I ask what pest or weed control at 280 g/ha has been recorded for N/C(Cc1ccccc1)=N\OC(=O)COc1ccc(Cl)cc1Cl ?
OUT: 48

IN: May I ask what pest or weed control at 280 g/ha has been recorded for O=C(COc1ccc(Cl)cc1Cl)O/N=C/c1ccc(/C=N/OC(=O)COc2ccc(Cl)cc2Cl)cc1 ?
OUT: 33

Source listed as patent US20260042731A1.
